test system: U2OS; assay: nuclei count (viability) relative to DMSO (% of DMSO); higher = more viable cells; settings: 10 µM; 24 h
Where a name gives a salt, the structure may show the parent alone. Whole data set: some 3,200 compounds, median “nuclei count (viability) relative to DMSO” near 99, cut for the lowest 2% near 16. Only a selection was taken, and the lowest values are over-represented in it overall.
Please enter TRUE where nuclei count is greater than or equal to 100, and FALSE where it is lower.

C[C@@H]1CN(CCCn2c3ccccc3c3ccccc32)C[C@H](C)N1 [Rimcazole dihydrochloride] ... FALSE

# input for lookup
Given C1COC(NC(C2CC2)C2CC2)=N1 [Rilmenidine] , state whether its nuclei count is at least 100.
FALSE

====

Listing: nuclei count of selected molecules
test system: U2OS; assay: nuclei count (viability) relative to DMSO (% of DMSO); higher = more viable cells; conditions: 10 µM; 24 h
Where a name gives a salt, the structure may show the parent alone. Whole data set: some 3,200 compounds, median “nuclei count (viability) relative to DMSO” near 99, cut for the lowest 2% near 16. The full list was thinned out, with the lowest values kept by preference.
Answer as a number with no unit attached.

Reference set, count: 5
CC(=O)NCC(=O)N1[C@@H]2CC[C@H]1c1ccc(Nc3ncc(C(F)(F)F)c(NC4CCC4)n3)cc12 ... 16.4
Cc1cnc(Nc2ccc(N3CCN(C)CC3)cc2)nc1Nc1cccc(S(=O)(=O)NC(C)(C)C)c1 ... 5.44
Cc1ccc2c(c1)C(=O)C1(O)CCN(c3ccccc3)C1=N2 (configuration not stated) ... 96.3
COC(=O)C1=C(C)NC(C)=C(C(=O)NCCCN2CCC(c3ccccc3)(c3ccccc3)CC2)C1c1ccc([N+](=O)[O-])cc1 (configuration not stated) ... 55.1
CC[C@]12C=CCN3CC[C@@]4(c5cc([C@@]6(C(=O)OC)C[C@@H]7C[C@@H](C(C)(F)F)CN(Cc8c6[nH]c6ccccc86)C7)c(OC)cc5N(C)[C@H]4[C@@](O)(C(=O)OC)[C@@H]1OC(C)=O)[C@@H]32 [Vinflunine Tartrate] ... 14.1

U2OS nuclei count of CC[C@]1(O)C[C@H]2CN(CCc3c([nH]c4ccccc34)[C@@](C(=O)OC)(c3cc4c(cc3OC)N(C=O)[C@H]3[C@@](O)(C(=O)OC)[C@H](OC(C)=O)[C@]5(CC)C=CCN6CC[C@]43[C@@H]65)C2)C1 [Vincristine] is 18.1

U2OS nuclei count of CCC1=C[C@@H]2CN(C1)Cc1c([nH]c3ccccc13)[C@@](C(=O)OC)(c1cc3c(cc1OC)N(C)[C@H]1[C@@](O)(C(=O)OC)[C@H](OC(C)=O)[C@]4(CC)C=CCN5CC[C@]31[C@@H]54)C2 is 16.1

U2OS nuclei count of COc1ccc2[nH]c(-c3ccccc3)c(CCNC(C)=O)c2c1 is 84.5

U2OS nuclei count of C=CC(=O)Nc1cccc(Nc2nc(Nc3ccc(OCCOC)cc3)ncc2F)c1 is 34.7

U2OS nuclei count of CC[C@]1(O)C[C@@H]2CN(CCc3c([nH]c4ccccc34)[C@@](C(=O)OC)(c3cc4c(cc3OC)N(C)[C@H]3[C@@](O)(C(=O)OC)[C@H](OC(C)=O)[C@]5(CC)C=CCN6CC[C@]43[C@@H]65)C2)C1 [Vinblastine sulfate] is 16.8

U2OS nuclei count of CC(C)C(=O)SCCCCCCC(=O)Nc1nc(-c2ccccc2)cs1 is 45.8

U2OS nuclei count of Cc1cc(C(=O)NNCc2ccccc2)no1 is 109

====

tested on: U2OS; assay: nuclei count (viability) relative to DMSO (% of DMSO); higher = more viable cells; conditions: 10 µM; 24 h
In all, about 3,200 compounds were measured (“nuclei count (viability) relative to DMSO”: median about 99, lowest 2% from about 16 on). This excerpt belongs to a sample that is enriched for the lowest values.
Readout Name: nuclei count

Reference set, count: 3
CC(C)[C@H](NS(=O)(=O)c1ccc(-c2ccc(Br)cc2)cc1)C(=O)O ... 97.3
CO[C@@H]1[C@H](O)[C@@H](CO)O[C@H]1n1cnc2c(NC3CCCCC3)ncnc21 ... 102
N[C@@H](CS(=O)O)C(=O)O ... 102

U2OS nuclei count of CCC(=O)OCN1C(=O)C=CC1=O is 109

====

test system: U2OS; experiment: nuclei count (viability) relative to DMSO (% of DMSO); higher = more viable cells; settings: 10 µM; 24 h
The full ranking holds about 3,200 compounds; the median of “nuclei count (viability) relative to DMSO” is about 99, and the lowest 2% start at about 16. This excerpt belongs to a sample that is enriched for the lowest values.
Readout Name: nuclei count
Answer as a number with no unit attached.

CCc1cncnc1N1CCN(Cc2nc3ccc(C(F)(F)F)cc3[nH]2)CC1 ... 99.9

U2OS nuclei count of COc1c(C)cnc(Cn2cnc3c(Cl)nc(N)nc32)c1C is 49.7

====

tested on: U2OS; assay: nuclei count (viability) relative to DMSO (% of DMSO); higher = more viable cells; conditions: 10 µM; 24 h
Where a name gives a salt, the structure may show the parent alone. In all, about 3,200 compounds were measured (“nuclei count (viability) relative to DMSO”: median about 99, lowest 2% from about 16 on). Shown is part of a subset that was picked to be rich in the lowest values.
Please enter Satisfied where nuclei count is greater than or equal to 40, and Not satisfied where it is lower.

Observe how each entry below is paired with its result.
COc1cc2nccc(Oc3ccc(NC(=O)C4(C(=O)Nc5ccc(F)cc5)CC4)cc3)c2cc1OC [Cabozantinib malate] ... Satisfied
COc1cc2c(Oc3ccc(NC(=O)C4(C(=O)Nc5ccc(F)cc5)CC4)cc3F)ccnc2cc1OCCCN1CCOCC1 ... Not satisfied
C[C@H]1O[C@@H](O[C@H]2[C@@H](O)C[C@H](O[C@H]3[C@@H](O)C[C@H](O[C@H]4CC[C@@]5(C)[C@H](CC[C@@H]6[C@@H]5C[C@@H](O)[C@]5(C)[C@@H](C7=CC(=O)OC7)CC[C@]65O)C4)O[C@@H]3C)O[C@@H]2C)C[C@H](O)[C@@H]1O ... Not satisfied
COc1cc(N2CCC(N)CC2)ccc1Nc1ncc(Cl)c(-c2c[nH]c3ccccc23)n1 ... Not satisfied
COc1cc2nccc(Oc3ccc(NC(=O)C4(C(=O)Nc5ccc(F)cc5)CC4)cc3)c2cc1OC [XL-184 free base (Cabozantinib)] ... Satisfied
O=C(O)[C@H]1O[C@@H](Oc2cc3oc(-c4ccccc4)cc(=O)c3c(O)c2O)[C@H](O)[C@@H](O)[C@@H]1O ... Satisfied

Given Cc1cc(-c2ccccc2)nnc1NCCN1CCOCC1 [Minaprine dihydrochloride] , state whether its nuclei count is at least 40.
Satisfied

Given Nc1ccc(-c2ccc3ncc4ccc(=O)n(-c5cccc(C(F)(F)F)c5)c4c3c2)cn1 , state whether its nuclei count is at least 40.
Not satisfied

====

tested on: U2OS; test: nuclei count (viability) relative to DMSO (% of DMSO); higher = more viable cells; details: 10 µM; 24 h
Where a name gives a salt, the structure may show the parent alone. Whole data set: some 3,200 compounds, median “nuclei count (viability) relative to DMSO” near 99, cut for the lowest 2% near 16. Many of the other results were omitted from the sample, so the lowest values are more common in it than they were.
Readout Name: nuclei count
Answer as a number with no unit attached.

Reference set, count: 2
Cc1cc(/C=C/c2ccc3cc(N(C)C)ccc3[n+]2C)c(C)n1-c1ccccc1 [Pyrvinium pamoate] ... 6.32
COC(=O)C1=C(C)NC(C)=C(C(=O)OCCSc2ccccc2)C1C (configuration not stated) ... 97.8

// recorded nuclei count for Cc1cc(O)c2c(c1)C(=O)c1cccc(O)c1C2=O [Chrysophanic acid (Chrysophanol)] : 92.5

// recorded nuclei count for COC(=O)c1c(-c2cc(OC)c(OC)c(OC)c2)c2ccnc(OCc3ncccn3)c2c(=O)n1Cc1ccnc(C)c1 [T 0156 hydrochloride] : 107

====

test system: U2OS; assay: nuclei count (viability) relative to DMSO (% of DMSO); higher = more viable cells; conditions: 10 µM; 24 h
Counter-ions that a name gives are not always drawn. In all, about 3,200 compounds were measured (“nuclei count (viability) relative to DMSO”: median about 99, lowest 2% from about 16 on). The sample holds the lowest values, similar compounds and a random draw of the others, so the mix is not that of the screen.
Please enter 1 where nuclei count is greater than or equal to 100, and -1 where it is lower.

Observe how each entry below is paired with its result.
COC1=CC(c2cc3ccccc3[nH]2)=N/C1=C\c1[nH]c(C)cc1C [Obatoclax mesylate (GX15-070)] ... -1
CCN(CC)Cc1ccc2cc(COC(=O)Nc3ccc(C(=O)NO)cc3)ccc2c1 ... -1
COc1cc(-c2cn(C)c(=O)c3cnccc23)c(OC)cc1CN(C)C ... 1

Given CC(C)[C@H](C(=O)Nc1ccc(C(=O)NO)cc1)c1ccccc1 , state whether its nuclei count is at least 100.
-1
